System: T1, human CD36 (on HEK 293 or SCC25 cells) (human, UniProt P16671 2-472)
T1 construct: Overexpressed transiently or stably on HEK 293 cells, or stably on SCC25 cells; also called huCD36
T1 sequence (P16671 2-472 limits assumed): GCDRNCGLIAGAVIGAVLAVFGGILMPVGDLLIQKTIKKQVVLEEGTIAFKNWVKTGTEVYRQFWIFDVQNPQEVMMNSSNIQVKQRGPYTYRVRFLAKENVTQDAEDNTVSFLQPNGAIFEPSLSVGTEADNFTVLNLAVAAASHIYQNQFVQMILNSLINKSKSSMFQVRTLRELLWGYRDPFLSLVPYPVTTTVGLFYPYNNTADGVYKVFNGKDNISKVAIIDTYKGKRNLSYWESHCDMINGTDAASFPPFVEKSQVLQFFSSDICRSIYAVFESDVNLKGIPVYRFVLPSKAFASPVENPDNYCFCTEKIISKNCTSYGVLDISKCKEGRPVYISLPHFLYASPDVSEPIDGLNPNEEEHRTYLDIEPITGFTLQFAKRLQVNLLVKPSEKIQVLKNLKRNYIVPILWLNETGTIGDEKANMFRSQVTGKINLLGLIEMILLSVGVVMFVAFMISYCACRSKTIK
Assay Comment: FACS, HEK 293 cells transiently overexpressing CD36;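 also: antibody binding to transfected cells detected by flow cytometry with a fluorescent anti-human secondary antibody, EC50 from a four-parameter sigmoidal fit of mean fluorescence intensity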

Binder | EC50 / nM
35G04 (antibody, human IgG1, V domains shown, Chimeric: chicken variable regions on human IgG1 LALA (L234A/L235A); also called 035G04) VH: AVTLDESGGGLQTPGGALSLVCKASGFTFSNYGMGWMRQAPGKGLEFVAKIYKDGGYTGYGAAVDGRATISRDDGQSTVRLQLNDLRAEDTATYFCAKAADSGYLYITDSIDAWGHGTEVIVSS VL: ALTQPSSVSANPGETVKITCSGGSGSYGWFQQKSPGNAPVTVIYHNDQRPSDIPSRFSGSKSGSTATLTITEVQADDEAVYVCGGYDNDNDAGIFGAGTTLTVL | 0.63
16G04 (antibody, human IgG1, V domains shown, Chimeric: mouse variable regions on human IgG1 LALA (L234A/L235A); also called 016G04) VH: EVQLQQSGPELVKPGASVKISCKTSGYTFTEYTMHWVKQSHGKSLEWIGGINPYNGGTAYNQKFKNKATLTVDISSNTAFMEFRSLTSEDSAVYYCASDYFYGDANPWFAYWGQGTLVTVSA VL: ETTVTQSPASLSMAIGEKVTIRCITSTDIDDDMNWYQQKPGEPPKLLISEGNTLRPGVPSRFSSSGYGTDFVFTIENMLSEDVADYYCLQSDNLPLTFGAGTKLELK | 1.36
28G04 (antibody, human IgG1, V domains shown, Chimeric: mouse variable regions on human IgG1 LALA (L234A/L235A); also called 028G04) VH: EVQLQQSGPELVKPGASVKISCKTSGYTFTEYTIHWVKQSHGKSLEWIGGIIPNNGGSSHKQNFKDKATLTVDKSSSTAYMELRSLTSEDSAVYYCARAGDYAFDYWGQGTTLTVSS VL: ETTVTQSPASLSMAIGEKVTIRCITSTDIDDDMNWYQQKPGEPPKLLISEGNTLRPGVPSRFSSSGYGTDFVFTIENMLSEDVADYYCLQSGTLPFTFGSGTKLEIK | 0.6
